Target: Beta-1 adrenergic receptor (Homo sapiens) (UniProt P08588)
Sequence (P08588 whole entry, looked up): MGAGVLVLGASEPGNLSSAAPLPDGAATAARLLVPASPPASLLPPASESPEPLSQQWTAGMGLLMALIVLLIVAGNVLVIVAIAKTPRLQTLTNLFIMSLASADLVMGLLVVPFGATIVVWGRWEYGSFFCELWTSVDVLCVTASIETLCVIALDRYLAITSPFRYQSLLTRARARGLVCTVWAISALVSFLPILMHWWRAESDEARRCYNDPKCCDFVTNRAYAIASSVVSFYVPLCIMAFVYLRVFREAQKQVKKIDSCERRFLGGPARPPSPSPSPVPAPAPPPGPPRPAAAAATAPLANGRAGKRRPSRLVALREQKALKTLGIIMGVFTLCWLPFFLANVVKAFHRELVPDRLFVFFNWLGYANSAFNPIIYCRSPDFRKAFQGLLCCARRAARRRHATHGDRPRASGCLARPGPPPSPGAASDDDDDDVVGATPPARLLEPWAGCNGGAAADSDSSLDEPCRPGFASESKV
measurement_type: Inotropic effect

compound	Inotropic effect
CNCCc1ccc(OC(=O)C(C)C)c(OC(=O)C(C)C)c1	38
CCc1nc(O)ncc1-c1ccc(O)cc1	67
COc1ccc(-c2nc3cc(C4=NNC(=O)CC4C)ccc3[nH]2)cc1 (stereo unspecified)	82
O=C1CCC(c2ccc(-n3ccnc3)cc2)=NN1	78
CCNC(=O)OC1CCN(c2nncc3cc(OC)c(OC)cc23)CC1	86
Cc1nc(=O)c(C#N)c(NCc2cccnc2)[nH]1	66
